Experiment: Pharmacokinetic study in beagle dogs (plasma, LC-MS/MS)
Assay type: in vivo
Cond: dog, in vivo, iv, i.v. 1mg/kg

Molecule	Value units	AUC(0-t)
FC(F)(F)Oc1ccc(Nc2ncc3c(N4CCOCC4)cc(Cl)cc3n2)cc1 [Compound 45]	ng·h/mL	1560

====

Experiment: Pharmacokinetic study in rats (plasma, LC-MS/MS)
Cond: rat, in vivo, iv, 1 mg/kg

Compound	Value units	AUC(0-t)
FC(F)(F)Oc1ccc(Nc2ncc3c(N4CCOCC4)cc(Cl)cc3n2)cc1 [Compound 45]	ng·h/mL	1180
CN(C)CCN(C)c1cc(Cl)cc2nc(Nc3ccc(OC(F)(F)F)cc3)ncc12 [Compound 44]	ng·h/mL	650
